B1: scFv; the commonest letter at each place (parent)
chain 1: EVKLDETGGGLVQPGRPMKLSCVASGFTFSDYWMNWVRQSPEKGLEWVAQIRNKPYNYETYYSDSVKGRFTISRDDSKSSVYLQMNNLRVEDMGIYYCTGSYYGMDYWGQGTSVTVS
chain 2: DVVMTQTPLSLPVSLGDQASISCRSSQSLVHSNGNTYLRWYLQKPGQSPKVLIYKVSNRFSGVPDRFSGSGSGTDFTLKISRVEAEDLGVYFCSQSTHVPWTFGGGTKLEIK

# Variants of: B1
# Measurement Notes: Kd (Tite-Seq)
# Conditions: with fluorescein; format: scFv 4-4-20, heavy + light
Metric Name: Kd

Please review the entries below; each comes with its answer.
mutation_spec="chain 1 S30T N35Q" reported_value="≥ 10 µM"
mutation_spec="chain 1 Y32M W33E" reported_value="≥ 10 µM"
mutation_spec="chain 1 Y32G W36H" reported_value="≥ 10 µM"
mutation_spec="chain 1 Y103D G109H" reported_value="≥ 10 µM"

Fill in: Kd of chain 1 G100C W108L is ___
0.000389 µM

Ok, now chain 1 M34Q W36E
≥ 10 µM

Another variant to look at: chain 1 Y102C M105P
≥ 10 µM

What would you report for chain 1 T28W S30A ?
0.00444 µM

Next up: chain 1 Y32M
0.972 µM

Subsequent entry: chain 1 S101C
≥ 10 µM

Could you do the same for chain 1 V37I , please?
0.00239 µM

Subsequent entry: chain 1 Y102I Y103W
0.0015 µM

Same question for chain 1 G100T D106A please.
≥ 10 µM

Queued: chain 1 S101D M105T
≥ 10 µM

Also chain 1 Y102P G104S M105H ?
≥ 10 µM

How about chain 1 S30H W36M ?
2.34 µM

Try chain 1 D31E M34N next.
≥ 10 µM

Follow-up entry: chain 1 Y103A G104A
≥ 10 µM

Repeat for the following variant: chain 1 D106P W108M
≥ 10 µM

Same read-out for chain 1 T28K W33M ?
≥ 10 µM

Follow-up entry: chain 1 Y103S M105R
0.176 µM

Next up: chain 1 G100I W108M
0.00468 µM

Record: chain 1 D31A W33L
≥ 10 µM

Please give the result for chain 1 G100D D106Q too.
≥ 10 µM

Same read-out for chain 1 S101P Y102V W108C ?
≥ 10 µM

Data origin, for the record: the FLAb antibody collection (doi:10.7554/elife.23156)
